The reader will find reported MFI at 33.3 nM values listed item by item below.
target: T1, human PD-L1 on CHO cells (human, UniProt Q9NZQ7 19-290); test: flow cytometry, CHO cells stably expressing PD-L1
T1 construct: whole, on cells; CHO cells stably expressing PD-L1; also called huPD-L1
T1 sequence (Q9NZQ7 19-290): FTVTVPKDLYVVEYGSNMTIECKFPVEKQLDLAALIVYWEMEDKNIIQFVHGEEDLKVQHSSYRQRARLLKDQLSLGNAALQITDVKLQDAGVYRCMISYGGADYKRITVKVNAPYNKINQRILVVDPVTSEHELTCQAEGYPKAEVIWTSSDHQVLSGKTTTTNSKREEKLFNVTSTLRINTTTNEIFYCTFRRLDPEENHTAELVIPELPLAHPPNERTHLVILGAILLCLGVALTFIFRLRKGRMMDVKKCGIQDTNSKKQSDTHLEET

Binder	Units symbol	MFI at 33.3 nM
variant CD80 IgV-Fc E35D/N48K/L72V (Fc fusion, not shown: a dimerising Fc or GST) VIHVTKEVKEVATLSCGHNVSVEELAQTRIYWQKDKKMVLTMMSGDMKIWPEYKNRTIFDITNNLSIVILAVRPSDEGTYECVVLKYEKDAFKREHLAEVTLSVKAD	MFI	3030
variant CD80 IgV-Fc E35D/M47V/I61V/L85M (Fc fusion, not shown: a dimerising Fc or GST) VIHVTKEVKEVATLSCGHNVSVEELAQTRIYWQKDKKMVLTMMSGDVNIWPEYKNRTIFDVTNNLSIVILALRPSDEGTYECVVMKYEKDAFKREHLAEVTLSVKAD	MFI	3050
variant CD80 IgV-Fc E35D/M47V (Fc fusion, not shown: a dimerising Fc or GST) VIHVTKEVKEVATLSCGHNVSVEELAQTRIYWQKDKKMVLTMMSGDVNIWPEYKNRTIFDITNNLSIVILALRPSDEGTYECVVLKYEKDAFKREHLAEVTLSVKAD	MFI	2940

# credit: patent US20210130436A1
